assay: Pharmacokinetic assays of compounds after oral gavage administration to rats; assay type: in vivo, male SD rats; details: male SD rats, oral gavage, 30.0 mg/kg, suspension in 0.5% CMC-Na, plasma
Below, each entry is listed with its recorded MRT(0-t).

>  <QUERY SMILES>
C=CC(=O)N1CCC[C@@H](n2nc(-c3ccc(Oc4ccccc4)cc3)c3c(NC(=O)OCC(C)C)ncnc32)C1

>  <MRT(0-t) (h)>
2.5

$$$$
>  <QUERY SMILES>
C=CC(=O)N1CCC[C@@H](n2nc(-c3ccc(Oc4ccccc4)cc3)c3c(NC(=O)OCCCCCC)ncnc32)C1

>  <MRT(0-t) (h)>
2.8

$$$$
>  <QUERY SMILES>
C=CC(=O)N1CCC[C@@H](n2nc(-c3ccc(Oc4ccccc4)cc3)c3c(NC(=O)OCCCC)ncnc32)C1

>  <MRT(0-t) (h)>
2.9

$$$$

The origin of these recorded values is patent US20240360144A1.
